We begin with a simple list: items and their reported inhibition at 10 µM.
Experimental System: BTK (Homo sapiens)
Experiment Description: biochemical
Run Parameters: read-out: BTK inhibition (%), 0.75 uM BTK, […] probe 3l, 15 min preincubation
Respond with the bare value in %.

For orientation, consider the following solved cases.
# input Would you please give the reported inhibition at 10 µM of CC[C@@H]([C@H](C)O)n1ncn(-c2ccc(N3CCN(c4ccc(OC[C@@H]5CO[C@@](Cn6cncn6)(c6ccc(F)cc6F)C5)cc4)CC3)cc2)c1=O with BTK (Homo sapiens)?
# output 4.7

# input For BTK (Homo sapiens), give the measured inhibition at 10 µM of the entry O=C(CBr)c1ccc(O)cc1
# output -28.8

# input # assay system BTK (Homo sapiens): give inhibition at 10 µM of O[C@@H](COc1cccc2ncccc12)CN1CCN(C2c3ccccc3[C@@H]3[C@H](c4ccccc42)C3(F)F)CC1 (some centres unmarked)
# output 103

# input Given O=S(=O)(c1ccccc1)c1cnc2c(N3CCNCC3)cccc2c1 , report its inhibition at 10 µM on BTK (Homo sapiens).
# output 3.1

# input Please report the measured inhibition at 10 µM for Cc1noc(C)c1-c1ccc(-c2cc(C(N)=O)c(NC(N)=O)s2)c(O[C@H]2CCNC2)c1 tested on BTK (Homo sapiens).
# output 74.1

# input State inhibition at 10 µM on BTK (Homo sapiens). Entry: CC(=O)Oc1cc2c(s1)CCN(C(C(=O)C1CC1)c1ccccc1F)C2 (centres unmarked)
# output -2.3

# input Give inhibition at 10 µM only, for O=C(Nc1ccc(Cl)cc1)C1CCCN(C(=O)c2cccc(-c3ccco3)c2)C1 (centres unmarked) , using BTK (Homo sapiens) data.
# output 40.9

Continuing:
# input // fetch inhibition at 10 µM for NC(=O)NCCC[C@H](N)C(=O)O ; system: BTK (Homo sapiens)
# output -17.9

---

Below, each entry is listed with its recorded inhibition at 10 µM.
Experimental System: BTK (Homo sapiens)
Experiment Description: biochemical
Run Parameters: read-out: BTK inhibition (%), 0.75 uM BTK, […] probe 3l, 15 min preincubation
The reply should read as a number followed by its unit.

Example cases with answers are listed next.
# input Look up inhibition at 10 µM of Cc1ccc([N+](=O)[O-])cc1S(=O)(=O)N(C)/N=C/c1cnc2ccc(Br)cn12 [PCM-0094904] and report it.
# output 13.6%

# input Return reported inhibition at 10 µM. Input molecule: CCCOc1ccc2nc(NC(=O)OC)[nH]c2c1 [PCM-0086075]
# output 10.2%

# input Look up and report measured inhibition at 10 µM for this entry: C/C=C/c1cc(OC)c2c(c1)C(C)C(c1ccc(O)c(OC)c1)O2 (centres unmarked) [PCM-0216391]
# output 19.3%

# input Note inhibition at 10 µM for the molecule shown: O=C(/C=C/c1ccc(O)c(O)c1)O[C@@H]1C[C@](O)(C(=O)O)C[C@@H](O)[C@H]1O [PCM-0087069]
# output -10.1%

Could you now consider this next molecule?
# input For the molecule CC1=C(/C=C/C(C)=C/C=C/C(C)=C/C(=O)O)C(C)(C)CCC1 [PCM-0065434] , give its measured inhibition at 10 µM value.
# output -32.7%

---

Experimental System: UniProt:Q06187
Experiment Description: biochemical
Run Parameters: read-out: BTK inhibition (%), 0.75 uM BTK, […] probe 3l, 15 min preincubation
Experimental Readout: inhibition at 10 µM (%)
Write the number in % without appending the unit.

# input For the molecule COc1cc2c(cc1Cc1cccc(Cl)c1F)c(=O)c(C(=O)O)cn2[C@H](CO)C(C)C , give its measured inhibition at 10 µM value.
# output 31.9

# input Complete the entry with inhibition at 10 µM for O=C(O)c1cc(O)ccc1O
# output -21.4

# input In one line, give reported inhibition at 10 µM of the entry Cc1cc(-n2c(=O)[nH]c(=O)n(C)c2=O)ccc1Oc1ccc(SC(F)(F)F)cc1 .
# output -0.8

# input Specify reported inhibition at 10 µM for the molecule shown: CC(C(=O)Nc1cccc(N=Cc2c(O)ccc3ccccc23)c1)c1ccccc1 (stereo not drawn)
# output 21.6

# input # return recorded inhibition at 10 µM for input COCCOC(=O)C1=C(C)NC(C)=C(C(=O)OC/C=C/c2ccccc2)C1c1cccc([N+](=O)[O-])c1 (stereo not drawn)
# output 59.9

Next:
# input State its inhibition at 10 µM for this molecule: CCS(=O)(=O)N1CCC(C(C)n2c(C)c(C(=O)NCc3c(OC)cc(C)[nH]c3=O)c3ccccc32)CC1 (stereo not drawn)
# output -3.1

# input Item CC#CCn1c(N2CCC[C@@H](N)C2)nc2c1c(=O)n(Cc1nc(C)c3ccccc3n1)c(=O)n2C : provide inhibition at 10 µM
# output -3.1

# input Give the reported inhibition at 10 µM for this molecule. Cc1cccc(Cc2cnc[nH]2)c1C
# output -20.2

# input Dear colleague, please send me the reported inhibition at 10 µM for Cc1c(C(=O)C=Cc2ccccc2)[n+](=O)c2ccccc2n1[O-] when you can.
# output -6.9

# input Quick one: give measured inhibition at 10 µM for CCn1c2ccccc2c2cc(Nc3ccnc(NCCCN4CCOCC4)n3)ccc21
# output -6.9

# input Input Cc1ccc2nc(NC(=O)CSc3nc4c(c(=O)n3-c3ccccc3)SCC4)sc2c1 , output reported inhibition at 10 µM.
# output 10.2

---

inhibition at 10 µM for assorted compounds
Experimental System: BTK (Homo sapiens, UniProt Q06187)
Sequence (Q06187 402-655 limits assumed): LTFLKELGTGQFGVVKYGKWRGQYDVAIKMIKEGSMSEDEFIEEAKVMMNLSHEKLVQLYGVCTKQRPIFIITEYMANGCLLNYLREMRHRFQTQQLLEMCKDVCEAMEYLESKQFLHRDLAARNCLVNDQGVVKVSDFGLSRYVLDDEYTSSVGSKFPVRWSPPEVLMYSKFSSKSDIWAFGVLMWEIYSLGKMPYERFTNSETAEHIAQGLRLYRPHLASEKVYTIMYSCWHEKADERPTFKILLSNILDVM
Experiment Description: biochemical
Run Parameters: read-out: BTK inhibition (%), 0.75 uM BTK, […] probe 3l, 15 min preincubation
Express your answer in %, writing the number without its unit.

For orientation, consider the following solved cases.
# input Determine from records and report inhibition at 10 µM for NC(=S)N/N=C/c1ncccc1N
# output -1.5

# input Please supply the value of reported inhibition at 10 µM for the item NC[C@H]1O[C@H](O[C@H]2[C@H](O)[C@@H](O[C@H]3O[C@H](CO)[C@@H](O)[C@H](N)[C@H]3O)[C@H](N)C[C@@H]2N)[C@H](N)C[C@@H]1O
# output -14.5

# input Please give measured inhibition at 10 µM of the following entry: CC1(C)[C@H]2CC[C@]1(C)[C@H](O)C2
# output -20.2

# input Retrieve inhibition at 10 µM measured for CCCCCCNC(=O)Nc1ccc(S(=O)(=O)Nc2ccc(CCNC[C@H](O)COc3ccc(O)cc3)cc2)cc1 and print it.
# output 5.4

Read the next record carefully.
# input Return the recorded inhibition at 10 µM value; entry: COc1cc2c(cc1O)C[C@H]1c3cc(O)c(OC)cc3CC[N+]1(C)C2 (some centres unmarked)
# output 2.3

---

Experimental System: BTK (Homo sapiens, UniProt Q06187)
Experiment Description: biochemical
Run Parameters: read-out: BTK inhibition (%), 0.75 uM BTK, […] probe 3l, 15 min preincubation
Reported values of inhibition at 10 µM for individual entries
State the answer as a number, implicitly in %.

# input Return inhibition at 10 µM for the following compound: Cn1cc(C2=C(c3ccc(Cl)cc3Cl)C(=O)NC2=O)c2ccccc21 [PCM-0064915]
# output 3.4

# input Specify reported inhibition at 10 µM for the compound shown: NC(=O)c1ccc(OCCCN2CC3CCCC3C2)cc1 (stereo not drawn) [PCM-0215865]
# output 6.2

# input Return reported inhibition at 10 µM. Input compound: C=CCc1ccc(OC(C)=O)c(OC)c1 [PCM-0216623]
# output 8.5

---
# input Consider the compound CC1(C)CC(=O)c2c(C(F)(F)F)nn(-c3ccc(C(N)=O)c(NC4CCC(OC(=O)CN)CC4)c3)c2C1 (stereo not drawn) [PCM-0214703] and give its recorded inhibition at 10 µM.
# output 1.6

# input Check the records and state inhibition at 10 µM for C=CCSC[C@H](N)C(=O)O [PCM-0215956]
# output 3.4

# input Using the record for CC1COC2(CCN(c3nc(=O)c4cc(C(F)(F)F)cc([N+](=O)[O-])c4s3)CC2)O1 (stereo not drawn) [PCM-0095074] , state its measured inhibition at 10 µM.
# output 4.7

# input Return reported inhibition at 10 µM. Input compound: C[C@@H]1CC[C@@]2(NC1)O[C@H]1C[C@H]3[C@@H]4CC=C5C[C@@H](O[C@@H]6O[C@H](CO)[C@@H](O[C@@H]7O[C@@H](C)[C@H](O)[C@@H](O)[C@H]7O)[C@H](O)[C@H]6O[C@@H]6O[C@@H](C)[C@H](O)[C@@H](O)[C@H]6O)CC[C@]5(C)[C@H]4CC[C@]3(C)[C@H]1[C@@H]2C [PCM-0216423]
# output 17.8

---

The entries below come with measured inhibition at 10 µM values attached.
Experimental System: UniProt:Q06187
Experiment Description: biochemical
Run Parameters: read-out: BTK inhibition (%), 0.75 uM BTK, […] probe 3l, 15 min preincubation
Write the value in % as a bare number.

# input Supply inhibition at 10 µM value. Item: CC[C@H](C)C(=O)O[C@H]1C[C@H](O)C=C2C=C[C@H](C)[C@H](CC[C@@H](O)C[C@@H](O)CC(=O)O)[C@H]21 [PCM-0214717]
# output -3.1

# input Using known records, supply inhibition at 10 µM for CCc1nc(C(N)=O)c(Nc2ccc(N3CCC(N4CCN(C)CC4)CC3)c(OC)c2)nc1NC1CCOCC1 [PCM-0215866]
# output 73.8

# input Answer with the recorded inhibition at 10 µM of O=C(O)[C@H](O)Cc1ccc(O)c(O)c1 [PCM-0215761] only.
# output 7.7

---
# input Give the value of inhibition at 10 µM reported for the following: CC(C)CCC[C@@H](C)[C@H]1CC[C@H]2C3=CC=C4C[C@@H](O)CC[C@]4(C)[C@H]3CC[C@]12C [PCM-0216561]
# output 18.5

# input Quick one: give measured inhibition at 10 µM for Cc1cc(F)c(Nc2ncnc3cc(OCc4ccccc4)ccc23)cc1O [PCM-0095349]
# output 46.9

# input // Input: Cc1ncc(CCCN(C)C)cc1Nc1ncc2c(n1)-c1ccc(C(F)(F)F)cc1NC(=S)C2 [PCM-0214732] . Output its inhibition at 10 µM only.
# output 24.1

# input Answer with the recorded inhibition at 10 µM of Cn1cnc(=N)c2[nH]cnc21 [PCM-0095527] only.
# output -4.8

# input Return value of inhibition at 10 µM for input CCC(=O)NC[C@@H]1C[C@H]1c1cccc2c1CCO2 [PCM-0216634] , no commentary.
# output 3.9

# input Quick one: give measured inhibition at 10 µM for CCNC(=O)c1noc(-c2cc(C(C)C)c(O)cc2O)c1-c1ccc(CN2CCOCC2)cc1 [PCM-0095017]
# output -0.7

# input Give the measured inhibition at 10 µM for C/C(=C\C(=O)OCCCCCCCCC(=O)O)C[C@@H]1OC[C@H](C[C@@H]2O[C@H]2[C@@H](C)[C@H](C)O)[C@@H](O)[C@H]1O [PCM-0101899]
# output 7

# input Supply inhibition at 10 µM value. Item: CN(C)C/C=C/C(=O)Nc1ccc(C(=O)Nc2cccc(Nc3ncc(Cl)c(-c4c[nH]c5ccccc45)n3)c2)cc1 [PCM-0213464]
# output 117
